Where do the numbers come from? From patent US20250320213A1.

# assayed_system: STAT6 (Homo sapiens, UniProt P42226)
# Construct: stably transfected HaCaT keratinocyte cell line, which expresses NanoLuc luciferase reporter gene under the transcriptional control of the STAT6 responsive promoter; endogenous in cells; host or cells: HaCaT keratinocyte reporter cell line (stably transfected with a NanoLuc reporter)
# Sequence (P42226 whole entry): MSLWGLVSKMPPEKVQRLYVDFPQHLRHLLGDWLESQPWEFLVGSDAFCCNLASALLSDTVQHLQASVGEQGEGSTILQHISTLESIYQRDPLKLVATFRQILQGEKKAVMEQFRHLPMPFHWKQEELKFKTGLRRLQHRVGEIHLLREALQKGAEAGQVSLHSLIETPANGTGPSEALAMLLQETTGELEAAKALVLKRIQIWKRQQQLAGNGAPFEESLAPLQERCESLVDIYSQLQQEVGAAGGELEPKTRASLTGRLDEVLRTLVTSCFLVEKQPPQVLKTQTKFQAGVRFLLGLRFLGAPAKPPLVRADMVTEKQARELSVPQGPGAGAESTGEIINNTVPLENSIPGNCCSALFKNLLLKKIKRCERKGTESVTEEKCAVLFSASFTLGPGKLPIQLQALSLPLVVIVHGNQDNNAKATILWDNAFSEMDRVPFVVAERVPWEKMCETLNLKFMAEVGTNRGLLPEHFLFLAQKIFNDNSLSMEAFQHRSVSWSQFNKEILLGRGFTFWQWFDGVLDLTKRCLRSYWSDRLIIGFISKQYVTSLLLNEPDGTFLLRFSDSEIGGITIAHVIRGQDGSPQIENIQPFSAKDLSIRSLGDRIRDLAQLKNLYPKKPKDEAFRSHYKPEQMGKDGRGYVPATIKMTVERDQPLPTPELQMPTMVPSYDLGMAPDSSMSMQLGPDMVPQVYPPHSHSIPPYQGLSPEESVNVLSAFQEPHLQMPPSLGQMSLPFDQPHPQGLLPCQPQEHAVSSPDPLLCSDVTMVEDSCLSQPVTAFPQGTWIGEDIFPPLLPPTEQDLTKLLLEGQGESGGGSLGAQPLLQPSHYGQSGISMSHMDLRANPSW
# procedure_text: STAT6 Reporter Luciferase Assay (IL-13 stimulated HaCaT keratinocyte NanoLuc reporter cells)
# Assay type: cell-based
# condition_set: Reporter EC50, IL-13 stimulated HaCaT STAT6 NanoLuc reporter cells
Where a name gives a salt, the structure may show the parent alone.
parameter_measured: EC50 (nM)
Write it as a number; the unit nM goes unstated.

Return EC50 (reported value) for this compound: CC(C)n1nc(C(=O)NCc2ccc(NC(=O)N3CCC(OC4CCNCC4)CC3)cc2)c2c1[C@@H](C)CN(c1ccc(C(=O)N(C)C)cc1)C2 [Example 485, hydrochloride]
1

* * *

# assayed_system: STAT6 (Homo sapiens, UniProt P42226)
# Construct: stably transfected HaCaT keratinocyte cell line, which expresses NanoLuc luciferase reporter gene under the transcriptional control of the STAT6 responsive promoter; endogenous in cells; host or cells: HaCaT keratinocyte reporter cell line (stably transfected with a NanoLuc reporter)
# procedure_text: STAT6 Reporter Luciferase Assay (IL-13 stimulated HaCaT keratinocyte NanoLuc reporter cells)
# Assay type: cell-based
# condition_set: STAT6 NanoLuc luciferase reporter, IL-13 stimulated HaCaT keratinocyte cells; read-out: Reporter EC50
Where a name gives a salt, the structure may show the parent alone.
Recorded EC50 values for a group of compounds are listed next.
Write it as a number; the unit nM goes unstated.

Check out these entries, answers already filled in.
State recorded EC50 with STAT6 (Homo sapiens, UniProt P42226), entry CN(C)C(=O)Nc1ccc(CNC(=O)c2nn(C3CC3)c3c2CN(c2ccc(C(=O)N(C)C)cn2)CC3)cc1 [Example 10, trifluoroacetate] , no comment.
11

State recorded EC50 with STAT6 (Homo sapiens, UniProt P42226), entry `C[C@@H]1Cc2c(c(C(=O)NCc3ccc(NC(=O)N(C)C)cc3)nn2C)CN1c1ccc(C(=O)N(C)C)cn1` , no comment.
35

State recorded EC50 with STAT6 (Homo sapiens, UniProt P42226), entry `CC(C)n1nc(C(=O)NCc2ccc(NC(=O)N3CCC4(CC3)COC4)cc2)c2c1CCN(c1ccc(C(=O)N(C)C)cn1)C2` , no comment.
6

State recorded EC50 with STAT6 (Homo sapiens, UniProt P42226), entry Cc1nc(C(=O)NCc2ccc(NC(=O)N(C)C)cc2)c2n1C(C)CN(c1ccc(C(=O)N(C)C)cn1)C2 (single isomer, unassigned) [Example 54] , no comment.
120

---
State recorded EC50 with STAT6 (Homo sapiens, UniProt P42226), entry `CC(C)n1nc(C(=O)NCc2ccc(NC(=O)N(C)C)cc2)c2c1CCN(c1ccc(C(=O)NCc3ccc(NC(=O)N(C)C)cc3)cn1)C2` , no comment.
748

State recorded EC50 with STAT6 (Homo sapiens, UniProt P42226), entry `CC(C)n1nc(C(=O)NCc2ccc(NC(=O)N(C)C)cc2)c2c1CCN(c1ccc(N3CCOC3=O)cn1)C2` , no comment.
13

* * *

# assayed_system: STAT6 (Homo sapiens, UniProt P42226)
# Construct: stably transfected HaCaT keratinocyte cell line, which expresses NanoLuc luciferase reporter gene under the transcriptional control of the STAT6 responsive promoter; endogenous in cells; host or cells: HaCaT keratinocyte reporter cell line (stably transfected with a NanoLuc reporter)
# procedure_text: STAT6 Reporter Luciferase Assay (IL-13 stimulated HaCaT keratinocyte NanoLuc reporter cells)
# Assay type: cell-based
# condition_set: IL-13 stimulated HaCaT STAT6 NanoLuc reporter cells; read-out: Reporter EC50
parameter_measured: EC50 (nM)
Write it as a number; the unit nM goes unstated.

Check out these entries, answers already filled in.
Return EC50 (reported value) for this compound: CC(C)n1nc(C(=O)NCc2ccc(NC(=O)N3CCN(C)CC3)c(F)c2)c2c1[C@@H](C)CN(c1ccc(-n3ccccc3=O)cn1)C2 [Example 610]
2

Return EC50 (reported value) for this compound: CC(C)n1nc(C(=O)NCc2ccc(NC(=O)N(C)C)cc2)c2c1CCN(c1ccc(C(=O)N3CCc4c(ncn4C)C3)cn1)C2 [Example 421]
18

Next compound, EC50 to be filled in.
Return EC50 (reported value) for this compound: CC(C)n1nc(C(=O)NCc2ccc(NC(=O)N(C)C)cc2)c2c1CCN(c1ccc(C(=O)N(C)C)cn1)[C@H]2C (single isomer, unassigned) [Example 507]
136
